Numbers sourced from patent US8658800B2.

# Experimental details: logP by HPLC on reversed-phase columns (C 18), EEC Directive 79/831 Annex V.A8
# Assay type: physicochemical
# Conditions used: reversed-phase C18 HPLC column; HPLC, reversed-phase C 18, acidic range pH 2.7, 0.1% aqueous formic acid/acetonitrile; read-out: log P
Readout: chromatographic logP
Give a plain numeric answer without units written out.

Cc1cc(C#N)cc(C(=O)O)c1NC(=O)c1cc(Cn2cnc(C(F)(F)F)c2C(F)(F)F)nn1-c1ncccc1Cl [Compound 16]	2.63
CCC(=O)c1cccc(C)c1NC(=O)c1cc(Cn2nnc(C(F)(F)F)n2)nn1-c1ncccc1Cl [Compound 34]	3.35

Supply measured chromatographic logP of Cc1cc(C#N)cc(OC(F)F)c1NC(=O)c1cc(Cn2nnc(C(F)(F)F)n2)nn1-c1ncccc1Cl [Compound 9] in your reply.
2.85

Supply measured chromatographic logP of Cc1cc(C#N)cc(C(=S)NC(C)(C)C)c1NC(=O)c1cc(Cn2nnc(C(F)(F)F)n2)nn1-c1ncccc1Cl [Compound 31] in your reply.
3.75

---

# Experimental details: logP by HPLC on reversed-phase columns (C 18), EEC Directive 79/831 Annex V.A8
# Type: physicochemical
# Conditions used: reversed-phase C18 HPLC column; HPLC, reversed-phase C 18, acidic range pH 2.7, 0.1% aqueous formic acid/acetonitrile; read-out: log P
Parameter chromatographic logP: see the listing below.
Give a plain numeric answer without units written out.

Some solved cases for reference:
Cc1cc(C#N)cc(C(=O)O)c1NC(=O)c1cc(Cn2nc(C(F)F)cc2C(F)F)nn1-c1ncccc1Cl [Compound 18]	2.62
Cc1cc(C#N)cc(C(=O)O)c1NC(=O)c1cc(Cn2nnc(C(F)(F)F)n2)nn1-c1ncccc1Cl [Compound 14]	2.65
Cc1cc(I)cc(C(=O)NS(C)(=O)=O)c1NC(=O)c1cc(Cn2nnc(C(F)(F)C(F)(F)F)n2)nn1-c1ncccc1Br [Compound 4]	3.39
CNC(=S)c1cc(I)cc(C)c1NC(=O)c1cc(Cn2nnc(C(F)(F)F)n2)nn1-c1ncccc1Cl [Compound 36]	3.73
Cc1cc(Cl)cc(OC(F)(F)F)c1NC(=O)c1cc(Cn2nnc(C(F)(F)F)n2)nn1-c1ncccc1Cl [Compound 10]	4
O=C(O)c1cc(Cl)cc(Cl)c1NC(=O)c1cc(Cn2cc(C(F)(F)F)nn2)nn1-c1ncccc1Cl [Compound 28]	2.69

Continue with the next molecule.
Supply measured chromatographic logP of O=C(O)c1cc(Cl)cc(Cl)c1NC(=O)c1cc(Cn2nnc(C(F)(F)C(F)(F)F)n2)nn1-c1ncccc1Cl [Compound 23] in your reply.
3.37

---

# Tested on: caterpillars of the armyworm (Spodoptera frugiperda)
# Experimental details: Spodoptera frugiperda test (SPODFR spray treatment)
# Assay type: in vivo
# Conditions used: foliar, 168 h, 100 g/ha, sprayed maize leaf discs, after 7 days, read-out: activity (kill of caterpillars)
Parameter pest or weed control at 100 g/ha: see the listing below.
Please give a number only; it is taken to be in %.

Cc1cc(C#N)cc(C(=O)O)c1NC(=O)c1cc(Cn2nnc(C(F)(C(F)(F)F)C(F)(F)F)n2)nn1-c1ncccc1Cl [Compound 13]	100

Supply measured pest or weed control at 100 g/ha of Cc1cc(Br)cc(OC(F)F)c1NC(=O)c1cc(Cn2nnc(C(F)(F)F)n2)nn1-c1ncccc1Cl [Compound 8] in your reply.
100
